- System: endothelial cells (human endothelial-like cells, Eahy926)
- Protocol Description: MTT cell viability of endothelial cells (ECs)
- Type: cell-based
- Details: 10 μM

{"columns": ["Compound", "Cell viability (% of control) 10 μM"],
 "data": [
  ["Cc1cc(O)cc(O)c1C(=O)O[C@@H]1C[C@]2(C)C3CC(C)(C)CC3C=C(CO)[C@]12O (stereo partly drawn) [CH-205-L]", "118.8 % of control"],
  ["COc1cc(O)c(C(=O)O[C@@H]2C[C@]3(C)C4[C@@H](O)C(C)(C)C[C@@]4(O)C=C(C=O)[C@]23O)c(C)c1Cl (stereo partly drawn) [CH-205-E]", "98.6 % of control"],
  ["COc1cc(O)c(C(=O)O[C@@H]2C[C@@]3(C)C2=C(C=O)C=C2CC(C)(C)C[C@@H]23)c(C)c1Cl [CH-205-A]", "87.9 % of control"],
  ["Cc1c(Cl)c(O)cc(O)c1C(=O)O[C@@H]1C[C@]2(C)C3CC(C)(C)CC3C=C(CO)[C@]12O (stereo partly drawn) [CH-205-K]", "122.7 % of control"],
  ["Cc1c(Cl)c(O)cc(O)c1C(=O)OCC1=C[C@@H]2CC(C)(C)C[C@@H]2[C@@]2(C)C[C@@H](O)[C@@]12O [CH-205-H]", "128.7 % of control"],
  ["Cc1c(Cl)c(O)cc(O)c1C(=O)O[C@@H]1C[C@]2(C)C3[C@@H](O)C(C)(C)C[C@@]3(O)C=C(C=O)[C@]12O (stereo partly drawn) [CH-205-Q]", "98.9 % of control"],
  ["Cc1c(Cl)c(O)cc(O)c1C(=O)O[C@@H]1C[C@]2(C)[C@H]3CC(C)(C)C[C@@]3(O)C=C(C=O)[C@]12O [CH-205-N]", "94.1 % of control"],
  ["COc1cc(O)c(C(=O)O[C@@H]2C[C@]3(C)C4CC(C)(C)CC4C=C(C=O)[C@]23O)c(C)c1Cl (stereo partly drawn) [CH-205-O]", "43.6 % of control"],
  ["COc1cc(O)c(C(=O)O[C@@H]2C[C@]3(C)C4C(C=C(C=O)[C@]23O)CC(C)(C)[C@@H]4O)c(C)c1Cl (stereo partly drawn) [CH-205-P]", "78.5 % of control"]
]}
